MEASUREMENT DESCRIPTION: protein stability index of a GFP-peptide fusion (GPS, HEK-293T) (PSI 1-6); higher = more stable;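 note: 24-mer peptide tiles fused after GFP, lentivirally expressed, FACS-sorted into six equal bins by GFP/DsRed ratio, decoded by Illumina sequencing, PSI is the read-weighted mean bin number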
CONDITIONS: treatment: MLN4924 1 uM, 8 h; c terminus: a fixed tail appended
// reported protein stability index per item

| PRIMARY SEQUENCE | protein stability index |
| --- | --- |
| KIAQNLDFVNLMAYDFHGSWEKVT [CHIT1] | 2.18 |
| LGALKPLPACEFEMGGSEGIVESI [NETO1] | 4.31 |
| RLEALSTERDEIEDVKCQEDQKLQ [TRIM15] | 5.66 |
| VIVQIKQPRKKYVQRKSDFDQTVF [NETO1] | 2.09 |
| FTRPNEKGEYEVAEGIGSTVFRAI [BTBD10] | 3.46 |
| GCLLDDGLEGLFEDIDTSMYDNEL [SERTAD1] | 4.32 |
| LRELCRLWLRPETHTKEQILELVV [ZNF24] | 2.11 |
| ERPPPPPSDDLTLLESSSSYKNLT [MCOLN1] | 4.93 |
| THWAVGVCRDSVSRKGELTPLPET [TRIM39] | 2.95 |
| RERIQILKTSEVTQHLPRECLPEN [PTPN9] | 4.36 |
| NHAIDIICGFLKERCFRGSSYPVC [OAS1] | 2.6 |
| VKRKIRDESLCPQHHEALSLFCYE [TRIM39] | 2.73 |
| FRLVEKSCPEGDASECPQATNAKD [PPEF2] | 5.41 |
| SLGAVGEGFHNYHHSFPYDYSASE [SCD] | 3.88 |
| LYQKQPKIGYHLLYYLRASKAAAG [INTS3] | 2.25 |
| GPSHPDTSYYIRYRGAVYADSGNF [FEM1C] | 2.54 |
| ATETQALAQRTQQDSTRTVGERLQ [TEKT4] | 5.43 |
| DSLGGSQEMVQRPQPHRNRAGLDL [TRAF3IP2] | 4.58 |
| QLHHVVYCFMIAYGTQRTLILESQ [FUT8] | 3.17 |
| KNNDLVVAVNGESVETLDHDSVVE [PDZK1] | 5.34 |
| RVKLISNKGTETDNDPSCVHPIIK [PHTF1] | 3.83 |
| STNLGVNQAGFTLHSAIYAARPDV [ADD1] | 3.08 |
| YSLGGVRSLNVASGSGKSGGYGFG [KRT71] | 3.29 |
| ALLEGEKALWEDKTSLWEEENALW [CCDC70] | 3.73 |
| ALDLAREFLPQGPVAMRVAKLAIN [AUH] | 2.83 |
| LLDFMCRIIPNFYPPLEGHVRQGV [INTS3] | 2.84 |
| GLPAQQVGPWLGQLQELLHHCDDH [RSAD1] | 3.61 |

###

MEASUREMENT DESCRIPTION: protein stability index of a GFP-peptide fusion (GPS, HEK-293T) (PSI 1-6); higher = more stable
CONDITIONS: treatment: MLN4924 1 uM, 8 h; c terminus: a fixed tail appended
Label 0.0 if protein stability index falls below 3; label 1.0 in every other case.

| PRIMARY SEQUENCE | CLASS ASSIGNMENT |
| --- | --- |
| TQYVRHSSDPFYTPEPDTCHELLG [TPH1] | 1.0 |
| LREIPETTPIEEVKGLFKSENCPK [LARP4] | 1.0 |
| DTQVNPVGSVSVDCGPSRADRCSP [FBXO34] | 1.0 |
| FQVNKLMKKIKKLENDTISKQLTL [CCDC6] | 0.0 |
| TNNGAGFGLSILWVLLFTPCSFVC [SCAMP3] | 1.0 |
| SSEVGPFVSKIRAVINDIANLPVP [AUH] | 0.0 |
| HGLLGSPVRAAASSPVTTLTQTMH [CDC25B] | 1.0 |
| RNSLSAIFNNVMTLCAMLPLLLFT [SLC29A1] | 1.0 |
| SPAPLDTCPSSSTASSISSSGGSS [DYRK1B] | 1.0 |
| QVPSGEDQTALSLEECLRLLEATC [NFE2L1] | 1.0 |
| LSNLVQHILKKYYGNGMRKSPEMP [RTP4] | 0.0 |
| FVAFAAKLWSFFIYLLRRQIRTVI [CTDNEP1] | 1.0 |
| LDGAGLMGFVPHNGSLYGQASSER [ADAMTSL2] | 1.0 |

###

MEASUREMENT DESCRIPTION: protein stability index of a GFP-peptide fusion (GPS, HEK-293T) (PSI 1-6); higher = more stable
CONDITIONS: treatment: MLN4924 1 uM, 8 h; c terminus: a fixed tail appended
// reported protein stability index per item

| PRIMARY SEQUENCE | protein stability index |
| --- | --- |
| FENMSNDDAVRVLREIVHKPGPIT [DVL3] | 3.7 |
| LLNQQSLKRSANQMGVSAKRRPKA [MED27] | 3.82 |
| TLCDVTLRVEQKDFPAHRIVLAAC [KLHL12] | 1.83 |
| IGTPPSVLKRQRKRRVALSPVTEN [MYBL2] | 4.49 |
| FADGVLSGEELHELFHTIDTHNTN [NECAB1] | 3.68 |
| PPTYPTKYFGCELGAQTQFDVKND [EIF5] | 4.49 |
| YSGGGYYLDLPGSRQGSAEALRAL [PKD2L1] | 2.92 |
| EDQYEENSHLTSVPHWINSNTLGF [ETS2] | 3.13 |
| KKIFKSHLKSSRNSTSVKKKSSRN [P2RY14] | 4.22 |
| KKELEENFEKLRLSLQDQVDTLTF [MTUS2] | 3.8 |
| EGDLPQMEVGSGSRELSLRPSRSG [EID1] | 5.36 |
| GIIVKDARLNGSVASYILASHNGI [TENT5D] | 2.19 |
| NCPEFPPPDRTLGCWATDAAPAAG [RSPH3] | 4.47 |

###

MEASUREMENT DESCRIPTION: protein stability index of a GFP-peptide fusion (GPS, HEK-293T) (PSI 1-6); higher = more stable
CONDITIONS: treatment: MLN4924 1 uM, 8 h; c terminus: a fixed tail appended
Label No if protein stability index falls below 4; label Yes in every other case.

| PRIMARY SEQUENCE | CLASS ASSIGNMENT |
| --- | --- |
| GKKVSNQRFEVIEFDDGSGSVLRI [PTPRD] | No |
| MAAESGELIGACEFMKDRLYFATL [CDC14A] | No |
| HFGWYLGWGDCVWLPYLYTLQGLY [DHCR7] | No |
| ESQLPEEWENNRESLIVFMEQVHR [CPXM2] | No |
| GPAGHSKGELAPELGEEPQPRDEE [POLD4] | Yes |
| YIWEKSIGNLVKILHGTRGELLLD [RBBP5] | No |
| QGSPAVDKERFTTLVQDLANAFQQ [CHIT1] | No |
| TKCEYMLNSMPKRLCLVCGDIASG [ESRRG] | No |
| TSTFEATSEGTLELQQRNPKAERL [ZNF232] | Yes |
| SQKEMDKAETKTKKAAESLRRSVE [FCHO1] | Yes |
| EKAKAFWAMRRSYEAIAKHNQVEA [TRIM35] | No |
| RPRKLYKHSSTSSRIAKGGVDHTK [BTBD10] | Yes |
| LALGPGESLPHRLSCLGQQQQEPP [PLAGL1] | Yes |
| EKILRELSEEEEDEEEEEEEEEEG [KCNA4] | Yes |
| REALTRLQELCYQWLRPHVSTKEQ [ZSCAN9] | No |
| AGPDSWGSDAEQSTSGQPYPTSDQ [LCOR] | Yes |
| VEVMDETNCQKVLNMWCCCFFKRR [CSNK1G3] | No |
| MEALAAETNLLLAQKQRLERALDA [TEKT4] | Yes |
| GGRLENQKPRGLEGGVLRGSKLEK [ZSWIM9] | Yes |
| HSFQSSHRPSLNSVSLQINCQSVA [DLC1] | No |
| AIIRTPPKSPATPKQLRLINQPLP [MAP2] | No |
| LNWKMTLCLLVAWSIVGMAVVKGI [SLC6A17] | No |
| MVGLILGPFGINHGIELHSDVVEY [PCMTD1] | No |
| LLLVAKMSVGHLRLLSHDQVAMPY [JAGN1] | No |
| FFINEAMELKVGDFGLAARLEPLE [PLK2] | No |
| FAQALGCVLYACFILGRLCVPVFA [SOAT2] | No |
| NESMKAYHNSPAYLAYINAKSRAE [SMARCE1] | Yes |
